# Experimental System: Neuropeptide Y receptor type 5 (Homo sapiens, UniProt Q15761)
# Sequence (Q15761 whole entry): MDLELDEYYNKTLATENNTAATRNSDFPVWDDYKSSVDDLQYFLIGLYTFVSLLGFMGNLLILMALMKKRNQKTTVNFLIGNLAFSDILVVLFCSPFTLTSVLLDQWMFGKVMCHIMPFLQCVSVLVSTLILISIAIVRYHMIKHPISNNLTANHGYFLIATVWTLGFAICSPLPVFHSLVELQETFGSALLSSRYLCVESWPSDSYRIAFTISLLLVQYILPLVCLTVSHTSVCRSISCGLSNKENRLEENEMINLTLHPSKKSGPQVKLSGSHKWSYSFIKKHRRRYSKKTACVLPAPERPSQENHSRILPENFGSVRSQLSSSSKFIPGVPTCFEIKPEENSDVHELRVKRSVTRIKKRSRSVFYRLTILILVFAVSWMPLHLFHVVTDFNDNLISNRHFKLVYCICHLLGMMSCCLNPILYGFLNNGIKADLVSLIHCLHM
# Assay Procedure: Displacement of [125I]PYY from NPY5 receptor expressed in human HEK293 cells
# Assay type: cell-based
pKi: −log10 of the molar value.
Metric Name: pKi

{"Substance": "Ac-HYLNLVTRQRY-NH2", "Experimental System": "Neuropeptide Y receptor type 5 (Homo sapiens, UniProt Q15761)", "Metric Name": "pKi", "Endpoint Value": "< 6.00"}
